System: LOX IMVI melanoma
Test: NCI tumour cell line growth inhibition, 48 h
METRIC_NAME: TGI

COMPOUND | TGI
Nc1ncnc2c1c(-c1ccc(Oc3ccccc3)cc1)nn2C[C@H]1SSC[C@@H]1O | 1.79 µM
CCNC(=O)NNc1ncnc2c1c(-c1ccc(Cl)cc1)cn2-c1ccc(C)cc1 | 36.4 µM
O=C(CNc1nccs1)Nn1cnc2ccc(S(=O)(=O)Nc3nccs3)cc2c1=O | > 100 µM

I have 7 compounds here; please give me TGI for each one.
1. CN(C)C(=S)/N=c1\ssc(=S)n1Cc1cccs1
2. O=C1C=CC(=O)C2C1Cc1ccccc1C2c1ccccc1 (stereo not given)
3. COc1ccc(N2CN(C)CSC2=S)cc1
4. N=S(=O)(c1ccccc1)c1ccccc1
5. C[C@]12CC[C@@H]3c4ccc(O)cc4CC[C@H]3[C@@H]1CC[C@@H]2NS(=O)(=O)c1cccc(Cl)c1
6. N#C/C(=C/n1c(=S)[nH]c2ccccc21)C(N)=O
7. O=C(O)/C=C/c1ccc[c]([Sb](=[O])([OH])[OH])c1

Out:
1: > 100 µM; 2: > 100 µM; 3: > 100 µM; 4: > 100 µM; 5: 3.4 µM; 6: > 100 µM; 7: > 100 µM
